study_system: CDK9 (Homo sapiens, UniProt P50750)
Construct: endogenous in cells; host or cells: MDA-MB-231
Sequence (P50750 whole entry): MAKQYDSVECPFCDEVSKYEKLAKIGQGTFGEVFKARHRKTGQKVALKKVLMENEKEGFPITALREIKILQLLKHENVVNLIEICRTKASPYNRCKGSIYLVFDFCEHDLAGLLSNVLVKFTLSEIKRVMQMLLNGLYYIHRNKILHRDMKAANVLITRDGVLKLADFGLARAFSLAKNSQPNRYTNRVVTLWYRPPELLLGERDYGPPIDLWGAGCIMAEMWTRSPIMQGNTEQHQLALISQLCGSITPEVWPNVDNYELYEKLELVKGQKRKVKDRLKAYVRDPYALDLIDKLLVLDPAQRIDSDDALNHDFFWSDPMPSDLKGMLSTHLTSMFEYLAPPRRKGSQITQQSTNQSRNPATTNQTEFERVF
protocol: CDK protein degradation activity (Western blotting), CDK9
Format: cell-based
test_context: MDA-MB-231 cells, 0.1 μM, 16 hours, Western blot
value_kind: Enzyme degradation CDK9 (% remaining) @ 0.1 μM (%)
Numbers only, in %.

| compound | study_system | test_result |
| --- | --- | --- |
| O=C1CC[C@@H](c2ccc(OCC(=O)N3CCC(CC(=O)N4CCN(c5ccc(Nc6ncnc7c6ncn7C6CC(NC(=O)Cc7ccccc7)C6)cc5)CC4)CC3)cc2)C(=O)N1 (stereo partly shown) | CDK9 (Homo sapiens, UniProt P50750) | 20 |

Provide Enzyme degradation CDK9 (% remaining) @ 0.1 μM for all items below, preserving their order.
1. O=C1CC[C@H](N2C(=O)c3ccc(N4CCC(CN5CCC(CNc6ncnc7c6ncn7C6CC(NC(=O)Cc7ccccc7)C6)CC5)CC4)cc3C2=O)C(=O)N1 (stereo partly shown)
2. Cc1cccc(C(=O)N[C@H]2C[C@@H](n3cnc4c(NCc5cccc(OCC6CCN(C(=O)COc7ccc8c(c7)C(=O)N([C@H]7CCC(=O)NC7=O)C8=O)CC6)c5)ncnc43)C2)n1

Reply:
1: 50; 2: 50

Query: # lookup: Enzyme degradation CDK9 (% remaining) @ 0.1 μM of O=C1CCC(N2C(=O)c3cc(F)c(N4CCC(N5CCN(c6ccc(Nc7ncnc8c7ncn8[C@H]7C[C@@H](NC(=O)Cc8ccccc8)C7)cc6)CC5)CC4)cc3C2=O)C(=O)N1 (stereo partly shown)
Reply: 50

---

study_system: CDK9 (Homo sapiens, UniProt P50750)
Construct: endogenous in cells; host or cells: MDA-MB-231
protocol: CDK protein degradation activity (Western blotting), CDK9
Type: cell-based
test_context: MDA-MB-231 cells, 1 μM, 16 hours, Western blot
value_kind: Enzyme degradation CDK9 (% remaining) @ 1 μM (%)
Answers are plain numbers, in %.

Previously resolved entries follow.
| compound | test_result |
| --- | --- |
| O=C1CC[C@@H](c2ccc(OCC(=O)N3CCN(CCCN4CCN(c5ccc(Nc6ncnc7c6ncn7C6CC(NC(=O)Cc7ccccc7)C6)cc5)CC4)CC3)cc2)C(=O)N1 (some centres unmarked) | 0 |
| O=C1CCC(N2C(=O)C=C(N3CCC(C(=O)NC[C@H]4CC[C@H](CN5CCN(c6ccc(Nc7ncnc8c7ncn8[C@H]7C[C@@H](NC(=O)Cc8ccccc8)C7)cc6)CC5)CC4)CC3)C2=O)C(=O)N1 (some centres unmarked) | 10 |

Provide Enzyme degradation CDK9 (% remaining) @ 1 μM for all items below, preserving their order.
1. O=C1CC[C@H](N2C(=O)c3ccc(N4CCC(C(=O)N5CCN(CCC6CCN(c7ccc(Nc8ncnc9c8ncn9[C@H]8C[C@@H](NC(=O)Cc9ccccc9)C8)cc7)CC6)CC5)CC4)cc3C2=O)C(=O)N1
2. O=C1CCC(N2C(=O)c3cccc(OCC(=O)N4CCC(CCCN5CCN(c6ccc(Nc7ncnc8c7ncn8[C@H]7C[C@@H](NC(=O)Cc8ccccc8)C7)cc6)CC5)CC4)c3C2=O)C(=O)N1 (some centres unmarked)

Reply:
1. 0
2. 20

---

Would you kindly list Enzyme degradation CDK2 (% remaining) @ 10 μM for each of these compounds?
study_system: CDK2 (Homo sapiens)
Construct: endogenous in cells; host or cells: MDA-MB-231
protocol: CDK protein degradation activity (Western blotting), CDK2
Format: cell-based
test_context: MDA-MB-231 cells, 10 μM, 16 hours, Western blot
Give bare numbers, in %.

Previously resolved entries follow.
| compound | study_system | test_result |
| --- | --- | --- |
| Cc1cccc(C(=O)NC2CC(n3cnc4c(NCc5cccc(N6CCN(CC7CCN(C(=O)CNc8cccc9c8C(=O)N([C@H]8CCC(=O)NC8=O)C9=O)CC7)CC6)c5)ncnc43)C2)n1 (stereo partly shown) [Compound 134] | CDK2 (Homo sapiens) | 50 |
| Cc1cccc(C(=O)NC2CC(n3cnc4c(NCCCN5CCN(CC6CCN(C(=O)COc7ccc8c(c7)C(=O)N([C@@H]7CCC(=O)NC7=O)C8=O)CC6)CC5)ncnc43)C2)n1 (stereo partly shown) [Compound 144] | CDK2 (Homo sapiens) | 70 |
| O=C1CC[C@H](N2C(=O)c3ccc(N4CCC(C(=O)N5CCC(CN6CCN(c7ccc(Nc8ncnc9c8ncn9C8CC(NC(=O)c9cccc(F)n9)C8)cc7)CC6)CC5)CC4)cc3C2=O)C(=O)N1 (stereo partly shown) [Compound 467] | CDK2 (Homo sapiens) | 30 |

Provide Enzyme degradation CDK2 (% remaining) @ 10 μM for all items below, preserving their order.
1. O=C1CC[C@H](N2C(=O)c3cc(F)c(N4CCC(C(=O)N5CCC(CN6CCN(c7ccc(Nc8ncnc9c8ncn9C8CC(NC(=O)Cc9ccccc9)C8)cc7)CC6)CC5)CC4)cc3C2=O)C(=O)N1 (stereo partly shown) [Compound 456]
2. Cc1cccc(C(=O)NC2CC(n3cnc4c(NCCCN5CCN(CC6CCN(C(=O)COc7cccc8c7C(=O)N([C@@H]7CCC(=O)NC7=O)C8=O)CC6)CC5)ncnc43)C2)n1 (stereo partly shown) [Compound 142]
3. O=C1CC[C@@H](c2ccc(OCC(=O)N3CCC(CN4CCC(c5ccc(Nc6ncnc7c6ncn7C6CC(NC(=O)Cc7ccccc7)C6)cc5)CC4)CC3)cc2)C(=O)N1 (stereo partly shown) [Compound 281]
4. O=C1CC[C@@H](c2ccc(OCC(=O)N3CC(N4CCC5(CC4)CC(N4CCN(c6ccc(Nc7ncnc8c7ncn8[C@H]7C[C@@H](NC(=O)Cc8ccccc8)C7)cc6)CC4)C5)C3)cc2)C(=O)N1 [Compound 273]

Reply:
1: 70; 2: 50; 3: 50; 4: 50

---

Would you kindly list Enzyme degradation CDK9 (% remaining) @ 1 μM for each of these compounds?
study_system: CDK9 (Homo sapiens, UniProt P50750)
Construct: endogenous in cells; host or cells: MDA-MB-231
protocol: CDK protein degradation activity (Western blotting), CDK9
Assay type: cell-based
test_context: MDA-MB-231 cells, 1 μM, 16 hours, Western blot
Give bare numbers, in %.

| compound | test_result |
| --- | --- |
| Cc1cccc(C(=O)NC2CC(n3cnc4c(NCCC5CCN(CC6CCN(c7cccc8c7C(=O)N([C@H]7CCC(=O)NC7=O)C8=O)CC6)CC5)ncnc43)C2)n1 (stereo partly drawn) | 0 |
| O=C1CCC(N2C(=O)c3cccc(OCC(=O)N4CCN(CCCN5CCN(c6ccc(Nc7ncnc8c7ncn8[C@H]7C[C@@H](NC(=O)Cc8ccccc8)C7)cc6)CC5)CC4)c3C2=O)C(=O)N1 (stereo partly drawn) | 10 |

Next item in the queue.
Query: # lookup: Enzyme degradation CDK9 (% remaining) @ 1 μM of O=C1CC[C@H](N2C(=O)c3cccc(CCCCN4CCC(CN5CCN(c6ccc(Nc7ncnc8c7ncn8[C@H]7C[C@@H](NC(=O)c8cccc(C(F)(F)F)n8)C7)cc6)CC5)CC4)c3C2=O)C(=O)N1
Reply: 0

---

Would you kindly list Enzyme degradation CDK2 (% remaining) @ 0.1 μM for each of these compounds?
study_system: CDK2 (Homo sapiens)
Construct: endogenous in cells; host or cells: MDA-MB-231
protocol: CDK protein degradation activity (Western blotting), CDK2
Format: cell-based
test_context: MDA-MB-231 cells, 0.1 μM, 16 hours, Western blot
Answers are plain numbers, in %.

| compound_string | test_result |
| --- | --- |
| Cc1cccc(C(=O)N[C@H]2C[C@@H](n3cnc4c(NCc5ccc(OCCCN6CCN(C(=O)COc7ccc8c(c7)C(=O)N([C@H]7CCC(=O)NC7=O)C8=O)CC6)cc5)ncnc43)C2)n1 | 100 |

Next item in the queue.
Query: For the record O=C1CC[C@H](N2C(=O)c3ccc(N4CCC(CN5CCN(c6ccc(Nc7ncnc8c7ncn8[C@H]7C[C@@H](NC(=O)Cc8ccccc8)C7)cc6)CC5)CC4)cc3C2=O)C(=O)N1 , what value of Enzyme degradation CDK2 (% remaining) @ 0.1 μM is listed for CDK2 (Homo sapiens)?
Reply: 10

---

Would you kindly list Enzyme degradation CDK2 (% remaining) @ 1 μM for each of these compounds?
study_system: CDK2 (Homo sapiens, UniProt P24941)
Construct: endogenous in cells; host or cells: MDA-MB-231
protocol: CDK protein degradation activity (Western blotting), CDK2
Format: cell-based
test_context: MDA-MB-231 cells, 1 μM, 16 hours, Western blot
Answers are plain numbers, in %.

| compound | test_result |
| --- | --- |
| Cc1cccc(C(=O)N[C@H]2C[C@@H](n3cnc4c(NCc5cccc(N6CCN(C(=O)CNc7cccc8c7C(=O)N(C7CCC(=O)NC7=O)C8=O)CC6)c5)ncnc43)C2)n1 (some centres unmarked) [Compound 130] | 40 |
| Cc1cccc(C(=O)N[C@H]2C[C@@H](n3cnc4c(Nc5ccc(N6CCN(CCC7CCN(C(=O)C8CCN(c9ccc%10c(c9)C(=O)N([C@H]9CCC(=O)NC9=O)C%10=O)CC8)CC7)CC6)cc5)ncnc43)C2)n1 [Compound 389] | 30 |

Provide Enzyme degradation CDK2 (% remaining) @ 1 μM for all items below, preserving their order.
1. O=C1CC[C@H](N2C(=O)c3cccc(OCC(=O)N4CCC5(CC(N6CCN(c7ccc(Nc8ncnc9c8ncn9[C@H]8C[C@@H](NC(=O)Cc9ccccc9)C8)cc7)CC6)C5)C4)c3C2=O)C(=O)N1 (some centres unmarked) [Compound 264]
2. O=C1CC[C@H](N2C(=O)c3cccc(NCC(=O)N4CCC5(CC(N6CCN(c7ccc(Nc8ncnc9c8ncn9C8CC(NC(=O)Cc9ccccc9)C8)cc7)CC6)C5)C4)c3C2=O)C(=O)N1 (some centres unmarked) [Compound 263]

Reply:
20
40
